Test system: HT29 colon
EXPERIMENT SUMMARY: NCI-60 one-dose screen, 48 h
PARTICULARS: 10 µM unless noted
About 83,000 compounds went through this panel and 20% of them were active in at least one assay; those are over-represented in the sample as a whole. Active and inactive are the calls of the source. How the source made its calls: active means growth percent below 10; inactive means the rest.
Thanks in advance; please answer with one of these: active, inactive

Lookup: So what was the verdict on COC(=O)[C@@H](NC(=O)[C@@H](OC)[C@@H]1Cc2cc3cc(OC4CC(OC5CC(O)C(O)C(C)O5)C(O)C(C)O4)c(C)c(O)c3c(O)c2C(=O)[C@H]1OC1CC(OC2CC(OC3CC(C)(O)C(O)C(C)O3)C(O)C(C)O2)C(O)C(C)O1)C(C)C (stereo partly drawn) in this test?
Found: active

Lookup: So what was the verdict on "C=CC(=O)Nc1cccc(Nc2nc(Nc3ccc(N4CCN(C(C)=O)CC4)cc3OC)ncc2C(F)(F)F)c1" in this test?
Found: active

Lookup: So what was the verdict on "O=C1/C(=C\c2cccc(OCCCCCOc3ccc(Cl)cc3)c2)N=C2SCCCN12" in this test?
Found: inactive

Lookup: So what was the verdict on "COc1ccc(-c2ccc3c(N4CCOC[C@@H]4C)nc(N4CCOC[C@@H]4C)nc3n2)cc1CO" in this test?
Found: active

Lookup: So what was the verdict on O=C1C=CC2(NN=C(c3ccccc3)N2c2cccc(Cl)c2)c2cccc(O)c21 (stereo not drawn) in this test?
Found: inactive

Lookup: So what was the verdict on "Nc1c(C(=O)c2ccccc2)sc2nc(-c3cccs3)ccc12" in this test?
Found: active

Lookup: So what was the verdict on COc1cc2c(cc1OCCCCCN1CCN(c3ncnc4ccccc34)CC1)N=CC1CCCN1C2=O (stereo not drawn) in this test?
Found: active

Lookup: So what was the verdict on "CCc1nc2cc(F)c(/C=C/C(=O)NO)cc2c(=O)n1CCc1ccccc1" in this test?
Found: inactive

----------
Test system: UO-31 renal
EXPERIMENT SUMMARY: NCI-60 one-dose screen, 48 h
PARTICULARS: 10 µM unless noted
About 83,000 compounds went through this panel and 20% of them were active in at least one assay; those are over-represented in the sample as a whole. Activity calls are given as the source filed them. Rule for the calls: active = growth percent below 10; inactive = the rest.
Thanks in advance; please answer with one of these: active, inactive

Lookup: So what was the verdict on "Cc1nc2cc(-c3nn(C(C)C)c4ncnc(N)c34)ccc2o1" in this test?
Found: active

Lookup: So what was the verdict on "O=C(Cc1ccc(-c2ccc(OCCN3CCOCC3)cc2)cn1)NCc1ccccc1" in this test?
Found: inactive

Lookup: So what was the verdict on "CCCCN1CCCC[C@@H]1C(=O)N[C@H](C(=O)N(C)[C@H](CCc1nc(C(=O)N[C@@H](Cc2ccccc2)C[C@H](C)C(=O)OC)cs1)C(C)C)C(C)C" in this test?
Found: inactive

Lookup: So what was the verdict on "C#Cc1cccc(Nc2ncnc3cc(OCCOC)c(OCCOC)cc23)c1" in this test?
Found: inactive

Lookup: So what was the verdict on "Cc1cc(Nc2cc(N3CCN(C)CC3)nc(Sc3ccc(NC(=O)C4CC4)cc3)n2)n[nH]1" in this test?
Found: inactive

----------
Exercise: for every item that follows, state its recorded growth.
System: 786-0 renal
EXPERIMENT SUMMARY: NCI-60 one-dose screen, 48 h (100 = growth as untreated, 0 = no growth, -100 = all killed)
PARTICULARS: 10 µM unless noted
About 83,000 compounds went through this panel and 20% of them were active in at least one assay; those are over-represented in the sample as a whole.
Unit % implied. Number only.

Lookup: # growth lookup, item "C=C1C(=O)O[C@H]2[C@H]1CC/C(C=Nc1c(N)cc(C(F)(F)F)cc1C(F)(F)F)=C\CC[C@@]1(C)O[C@@H]21"
Found: -66.5

Lookup: # growth lookup, item "CNC(=O)c1cc(Oc2ccc(NC(=O)Nc3ccc(Cl)c(C(F)(F)F)c3)c(F)c2)ccn1"
Found: 3.58

Lookup: # growth lookup, item "C=CC(=O)Nc1cc2c(Nc3ccc(F)c(Cl)c3)ncnc2cc1OCCCN1CCOCC1"
Found: 2.4

Lookup: # growth lookup, item "CNC(=O)c1cc(Oc2cccc3nc(Nc4ccc(Cl)c(F)c4)ccc23)ccn1"
Found: 41.7

Lookup: # growth lookup, item "NN1C(=O)CSC1=S"
Found: 99.2

Lookup: # growth lookup, item "C=C1[C@@H](O)C[C@H]2C(C)(C)C[C@H](Cl)C[C@]2(C)[C@H]1C[C@H](O)[C@H]1CC(=O)NC1=O"
Found: -33.2

Lookup: # growth lookup, item "O=S1(=O)OC(c2ccc(O)c(Cl)c2)(c2ccc(O)c(Cl)c2)c2ccccc21"
Found: 110

Lookup: # growth lookup, item "CCN(CC)CCNc1ccc(N=Nc2cnc3ccccc3c2)c2ccccc12"
Found: -87.9

Lookup: # growth lookup, item "CN1CCC(COc2cnc(-c3cccc(Cn4nc(-c5cccc(C#N)c5)ccc4=O)c3)nc2)CC1"
Found: 61.9

Lookup: # growth lookup, item "COc1ncc(-c2ccc3nccc(-c4ccnnc4)c3c2)cc1NS(=O)(=O)c1ccc(F)cc1F"
Found: 4.21

Lookup: # growth lookup, item "CCN(CC)Cc1cc(Nc2cc(C(F)(F)F)c(C#N)c3nc4ccccc4n23)ccc1O"
Found: 11.9

Lookup: # growth lookup, item "CCN(CC)c1cc2oc3cc(N)cc(=N)c-3nc2cc1C"
Found: 62.6

Lookup: # growth lookup, item "COC(=O)[C@]12CC[C@@H](C)[C@H](C)[C@@H]1C1=CC[C@@H]3[C@@]4(C)C(c5cnco5)=C[C@@](C)(CO)C4=CC[C@@]3(C)[C@]1(C)CC2"
Found: 70.5

Lookup: # growth lookup, item "CCOC(=O)C1=C(C)N=C2Sc3cccc(OC)c3N2[C@H]1c1ccccn1"
Found: 113

Lookup: # growth lookup, item "CN(C)CCOC(=O)Nc1nc2ccc(Sc3ccccc3)cc2[nH]1"
Found: 42.2

Lookup: # growth lookup, item "Cc1ncc(-c2ccnc(Nc3ccc(S(C)(=O)=O)cc3)n2)n1C(C)C"
Found: 4.84

Lookup: # growth lookup, item "Cc1cc([C@@H](C)Nc2ccccc2C(=O)O)c2nc(N3CCOCC3)cc(=O)n2c1"
Found: 18.6

Lookup: # growth lookup, item "COc1ccc(S(=O)(=O)N(C(C)=O)c2ccccc2/C=C/c2cc[n+]([O-])cc2)cc1"
Found: 26.7

Lookup: # growth lookup, item "COc1cnc2c(c1)C(=O)c1c-2n(CCCN2CCOCC2)c(=O)c2cc(Cl)ccc12"
Found: -0.608

----------
Tested on: HCT-15 colon
EXPERIMENT SUMMARY: NCI-60 one-dose screen, 48 h (100 = growth as untreated, 0 = no growth, -100 = all killed)
PARTICULARS: 10 µM unless noted
Compounds without any hit were thinned out: in the full panel of roughly 83,000, 20% have a hit.
Exercise: for every item that follows, state its recorded growth.
Unit % implied. Number only.

Lookup: # growth lookup, item "COc1cc2ncnc(Oc3cccc(NC(=O)Nc4cc(C(C)(C)C(F)(F)F)on4)c3)c2cc1OC"
Found: 22.4

Lookup: # growth lookup, item "O=C1NC(=O)[C@@H](c2cn3c4c(cccc24)CCC3)[C@@H]1c1c[nH]c2ccccc12"
Found: 16.8

Lookup: # growth lookup, item "N#CC(C#N)=NO"
Found: 104

Lookup: # growth lookup, item "Cc1ccc(-c2nc3ccc(Cl)cn3c2NC2CCCCC2)o1"
Found: 66.8

Lookup: # growth lookup, item "COc1cc(OC)c(/C=C/S(=O)(=O)Cc2ccc(OC)c(NCC(=O)O)c2)c(OC)c1"
Found: 11.8

Lookup: # growth lookup, item "C=CCN1C(=O)c2cccc3c(-c4ccc5c(c4)ncn5C4CCCCC4)ccc(c23)C1=O"
Found: 44.9

Lookup: # growth lookup, item "NN1C(=O)CSC1=S"
Found: 105

Lookup: # growth lookup, item "CCc1cc2c(cc1N1CCC(N3CCOCC3)CC1)C(C)(C)c1[nH]c3cc(C#N)ccc3c1C2=O"
Found: 7.91

Lookup: # growth lookup, item "Cc1cc2c(-c3nc4ccccn4c3NC3CCCCC3)c(O)c(O)cc2c(O)c1-c1c(C)cc2c(-c3nc4ccccn4c3NC3CCCCC3)c(O)c(O)cc2c1O"
Found: 19.9

Lookup: # growth lookup, item "CNC(=O)c1cnc(C)nc1-c1cc(C(C)(C)C)c(O)c(C(C)(C)C)c1"
Found: 103

Lookup: # growth lookup, item Nc1ncnc2c1c(-c1cccc(OCc3ccccc3)c1)cn2C1CC(CN2CCC2)C1 (stereo unspecified)
Found: 10.1

Lookup: # growth lookup, item "C#Cc1cccc(Nc2ncnc3cc(OCCOC)c(OCCOC)cc23)c1"
Found: 39.3

Lookup: # growth lookup, item "Clc1ccc(/C=C/c2cc(N3CCOCC3)c3cc(Cl)c(Cl)cc3n2)cc1"
Found: 97.4

Lookup: # growth lookup, item "CCCCn1c(C)nc2ccc(Nc3nc(N4CCN(C)CC4)nc4nc[nH]c34)cc21"
Found: 110

Lookup: # growth lookup, item "COc1ccc(Br)cc1NC(=O)Nc1cccc2c1ccn2Cc1ccnc(N)c1"
Found: 1.92

Lookup: # growth lookup, item "COC(=O)c1ccc2c(C(=Nc3ccc(N(C)C(=O)CN4CCN(C)CC4)cc3)c3ccccc3)c(O)[nH]c2c1"
Found: 65.9

Lookup: # growth lookup, item "CC[n+]1c(/C=C/C=C2\N(C)c3ccccc3C2(C)C)sc2ccccc21"
Found: 6.66

Lookup: # growth lookup, item "O=c1nc2c(-c3nc4ccccc4s3)n[nH]n2c2sc3c(c12)CCCC3"
Found: 64

Lookup: # growth lookup, item "C=CC[n+]1c(/C=C/C=C2\N(C)c3ccccc3C2(C)C)sc2ccc(OC)cc21"
Found: 12.8

Lookup: # growth lookup, item "O=C(NO)c1ccc(Cn2c(=O)n(CCc3ccccc3)c(=O)c3ccccc32)cc1"
Found: 28.6

Lookup: # growth lookup, item "CCN(CC)CCOc1ccc(/C(=C(\C)c2ccc(Cl)cc2)c2ccc(Cl)cc2)cc1"
Found: 21.7

Lookup: # growth lookup, item "COC(=O)[C@]12CC[C@@H](C)[C@H](C)[C@@H]1C1=CC[C@@H]3[C@@]4(C)C(c5cnco5)=C[C@@](C)(CO)C4=CC[C@@]3(C)[C@]1(C)CC2"
Found: 29.8

Lookup: # growth lookup, item "CO[C@H]1C[C@@H]2CC[C@@H](C)[C@@](O)(O2)C(=O)C(=O)N2CCCC[C@H]2C(=O)O[C@H]([C@H](C)C[C@@H]2CC[C@@H](OC(=O)C(C)(CO)CO)[C@H](OC)C2)CC(=O)[C@H](C)/C=C(\C)[C@@H](O)[C@@H](OC)C(=O)[C@H](C)C[C@H](C)\C=C/C=C/C=C/1C"
Found: 27.3

Lookup: # growth lookup, item "CCN1CCN(Cc2ccc(Cc3ncc(F)c(-c4cc(F)c5nc(C)n(C(C)C)c5c4)n3)nc2)CC1"
Found: 32.9

Lookup: # growth lookup, item COc1cc2c(cc1OCCCCCCN1CCN(c3ncnc4ccccc34)CC1)N=CC1CCCN1C2=O (stereo unspecified)
Found: -2.53

Lookup: # growth lookup, item "CCN1CCN(Cc2ccc(-c3cc4c(N[C@H](C)c5ccccc5)ncnc4[nH]3)cc2)CC1"
Found: 50.1

Lookup: # growth lookup, item "CN1[C@@H]2CC[C@H]1/C(=C\c1ccccc1)C1=C2[C@@H](c2ccccc2)C(C#N)=C(N)O1"
Found: 81.1

Lookup: # growth lookup, item "C=C1C[C@H](O)[C@H](Br)C(C)(C)[C@@]12CCC(C)=C(Cl)C2"
Found: -4.29

Lookup: # growth lookup, item "CCN(CC)c1cc2oc3cc(N)cc(=N)c-3nc2cc1C"
Found: 37.8

Lookup: # growth lookup, item CC(C)(C)OC(=O)N1CCC(O)[C@@H](O[Si](c2ccccc2)(c2ccccc2)C(C)(C)C)[C@H]1/C=C/c1ccccc1 (stereo partly specified)
Found: 41.1

Lookup: # growth lookup, item "CO[C@H]1C[C@@H]2CC[C@@H](C)[C@@](O)(O2)C(=O)C(=O)N2CCCC[C@H]2C(=O)O[C@H]([C@H](C)C[C@@H]2CC[C@@H](OP(C)(C)=O)[C@H](OC)C2)CC(=O)[C@H](C)/C=C(\C)[C@@H](O)[C@@H](OC)C(=O)[C@H](C)C[C@H](C)\C=C/C=C/C=C/1C"
Found: 47.6

Lookup: # growth lookup, item Clc1ccc(C(Cn2ccnc2)OCc2ccsc2Cl)c(Cl)c1 (stereo unspecified)
Found: 42.5

Lookup: # growth lookup, item "Clc1ccc2c(NCCCNCc3ccc4c(c3)OCO4)ccnc2c1"
Found: 13.2

Lookup: # growth lookup, item "O=C(c1c(F)ccc(NS(=O)(=O)N2CC[C@@H](F)C2)c1F)c1c[nH]c2ncc(-c3cnc(C4CC4)nc3)cc12"
Found: 44.1

Lookup: # growth lookup, item "CCc1cc2c(c3ccc(C(=O)CBr)cc13)CCCC2"
Found: 101

Lookup: # growth lookup, item "CN(C)CCOC(=O)Nc1nc2ccc(Sc3ccccc3)cc2[nH]1"
Found: 33.2
